System: MCF7
experiment_notes: Cytotoxic activity against human MCF7 cells assessed as cell growth inhibition after 48 hrs by MTT assay
Assay type: functional, cell-based
condition_label: MCF7, 48 h
pIC50: −log10 of the molar value.
Let's look at some compounds and their measured pIC50.

{"structure_smiles_string": "C=C(C)[C@@H]1CC[C@]2(C(=O)O)CC[C@]3(C)[C@H](CC[C@@H]4[C@@]5(C)CC[C@H](OC(=O)Cn6cc(-c7cnc(OC)nc7OC)nn6)C(C)(C)[C@@H]5CC[C@]43C)[C@@H]12", "inequality_symbol": "=", "pIC50": 4.35}
{"structure_smiles_string": "C=C(C)[C@@H]1CC[C@]2(C(=O)O)CC[C@]3(C)[C@H](CC[C@@H]4[C@@]5(C)CC[C@H](OC(=O)Cn6cc(CO[C@@H]7[C@H]8OC(C)(C)O[C@H]8O[C@@H]7[C@H](O)CO)nn6)C(C)(C)[C@@H]5CC[C@]43C)[C@@H]12", "inequality_symbol": "<", "pIC50": 4.30}
